biological target: Human cGAS amino acids 155-522 (Homo sapiens (Human)); assay: cGAS biochemical activity assay (ATP remaining, Kinase-Glo Max luminescence); conditions: human cGAS 155-522, ATP remaining (Kinase-Glo Max); read-out: cGAS IC50
Would you kindly list IC50 for each of these molecules?

Please review the entries below; each comes with its answer.
Cc1[nH]c2c(-c3ccccc3)c(C(F)(F)F)nn2c(=O)c1C(=O)Nc1ccc(C(F)(F)F)cc1 [Compound A1007] = 20 to 250 µM
COc1ccncc1NC(=O)c1c(C)[nH]c2c(-c3ccccc3)c(C(F)(F)F)nn2c1=O [Compound A1103] = 20 to 250 µM
Cc1[nH]c2c(-c3ccccc3)c(C(F)(F)F)nn2c(=O)c1C(=O)Nc1ccccc1OC1CCCC1 [Compound A1044] = 20 to 250 µM
Cc1[nH]c2c(-c3ccccc3)c(C(F)(F)F)nn2c(=O)c1C(=O)N1CCCC1 [Compound A1009] = > 250 µM
Cc1[nH]c2c(-c3ccccc3)c(C(F)(F)F)nn2c(=O)c1-c1nc2ccccc2n1C1CCCCC1 [Compound C1190] = 20 to 250 µM
COc1cccc2oc(-c3c(C)[nH]c4c(-c5ccccc5)c(N)nn4c3=O)nc12 [Compound C1063] = > 250 µM

For each listed entry, give its IC50.
1. Cc1[nH]c2c(-c3ccccc3)c(C(F)(F)F)nn2c(=O)c1-c1n[nH]c(=O)o1 [Compound C1247]
2. COc1ccc(N)c2oc(-c3c(C)[nH]c4c(-c5ccccc5)c(C(F)(F)F)nn4c3=O)nc12 [Compound C1154]

// result
1. < 20 µM
2. < 20 µM

====

Provide the reported IC50 of each item.
molecular target: Human cGAS amino acids 155-522 (Homo sapiens (Human), UniProt Q8N884); experiment: cGAS biochemical activity assay (ATP remaining, Kinase-Glo Max luminescence); settings: human cGAS 155-522, ATP remaining (Kinase-Glo Max); read-out: cGAS IC50
Sequence (Q8N884 157-522): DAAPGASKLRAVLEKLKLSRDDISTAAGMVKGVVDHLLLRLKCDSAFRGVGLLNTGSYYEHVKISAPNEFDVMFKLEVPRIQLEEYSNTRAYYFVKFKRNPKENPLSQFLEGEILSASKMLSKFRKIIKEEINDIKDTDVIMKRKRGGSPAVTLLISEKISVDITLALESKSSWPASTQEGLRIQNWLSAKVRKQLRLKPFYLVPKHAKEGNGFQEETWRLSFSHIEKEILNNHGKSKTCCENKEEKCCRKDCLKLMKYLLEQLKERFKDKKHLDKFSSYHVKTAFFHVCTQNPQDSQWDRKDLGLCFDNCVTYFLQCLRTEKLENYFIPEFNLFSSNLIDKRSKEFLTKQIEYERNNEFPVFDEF

Consider the reported IC50 for these compounds:
Cc1[nH]c2c(-c3ccccc3)c(C(F)(F)F)nn2c(=O)c1-c1ncc(C2CCCOC2)o1 (stereo not shown) = < 20 µM
Cc1[nH]c2c(-c3ccccc3)c(C(F)(F)F)nn2c(=O)c1CC(=O)Nc1ccncc1 = 20 to 250 µM
Cc1[nH]c2c(-c3ccccc3)c(C(F)(F)F)nn2c(=O)c1C(=O)Nc1cccnc1 = 20 to 250 µM
COCc1[nH]c2c(-c3ccccc3)c(C(F)(F)F)nn2c(=O)c1-c1nnc(C2CCCC2)o1 = < 20 µM
COc1cccc2oc(-c3c(COCC4CNC(=O)O4)[nH]c4c(-c5ccccc5)c(C(F)(F)F)nn4c3=O)nc12 (stereo not shown) = < 20 µM

// for each compound in input: emit IC50
1. COc1nccc2oc(-c3c(C)[nH]c4c(-c5ccccc5)c(C(F)(F)F)nn4c3=O)nc12
2. Cc1[nH]c2c(-c3ccccc3)c(C(F)(F)F)nn2c(=O)c1-c1ccncc1

// result
1: < 20 µM; 2: 20 to 250 µM

====

Please provide measured IC50 for the entries that follow.
biological target: Human cGAS amino acids 155-522 (Homo sapiens (Human), UniProt Q8N884); experiment: cGAS biochemical activity assay (ATP remaining, Kinase-Glo Max luminescence); conditions: human cGAS 155-522, ATP remaining (Kinase-Glo Max); read-out: cGAS IC50

// known answers, use as guide
Cc1nnc(-c2c(C)[nH]c3c(-c4ccccc4)c(C(F)(F)F)nn3c2=O)o1 = 20 to 250 µM
Cc1[nH]c2c(-c3ccccc3)c(C(F)(F)F)nn2c(=O)c1-c1nnc(N2CCCC2C)o1 (stereo not shown) = < 20 µM
Cc1[nH]c2c(-c3ccccc3)c(C(F)(F)F)nn2c(=O)c1C(=O)NS(=O)(=O)Cc1ccccc1 = < 20 µM

// query Supply reported IC50 belonging to this molecule: Cc1[nH]c2c(-c3ccccc3)c(C(F)(F)F)nn2c(=O)c1C(=O)NCc1ccccc1
// result 20 to 250 µM

====

biological target: Human cGAS amino acids 155-522 (Homo sapiens (Human)); assay: cGAS biochemical activity assay (ATP remaining, Kinase-Glo Max luminescence); conditions: human cGAS 155-522, ATP remaining (Kinase-Glo Max); read-out: cGAS IC50
pIC50: −log10 of the molar value.
REPORTED_ENDPOINT: pIC50

COc1ccc(-c2c(C(F)(F)F)nn3c(=O)c(-c4nc5c(OC)cccc5o4)c(C)[nH]c23)cc1 = 3.60 to 4.70
COc1cccc2oc(-c3c(Cl)[nH]c4c(-c5ccccc5)c(C(F)(F)F)nn4c3=O)nc12 = > 4.70
Cc1[nH]c2c(-c3ccccc3)c(C(F)(F)F)nn2c(=O)c1-c1nnc(N2CCS(=O)(=O)CC2)o1 = 3.60 to 4.70
COCc1[nH]c2c(-c3ccccc3)c(C#N)nn2c(=O)c1-c1nc2c(OC)nccc2o1 = > 4.70
Cc1[nH]c2c(-c3ccccc3)c(C(F)(F)F)nn2c(=O)c1C(=O)Nc1ccn(C(C)C)n1 = > 4.70

Please state pIC50 for every compound in the list that follows.
1. COCc1nc(-c2c(C)[nH]c3c(-c4ccccc4)c(C(F)(F)F)nn3c2=O)oc1C1CCCCC1
2. CC(=O)Nc1cccc(NC(=O)c2c(C)[nH]c3c(-c4ccccc4)c(C(F)(F)F)nn3c2=O)c1

// result
< 3.60
3.60 to 4.70

====

target: Human cGAS amino acids 155-522 (Homo sapiens (Human)); test: cGAS biochemical activity assay (ATP remaining, Kinase-Glo Max luminescence); settings: human cGAS 155-522, ATP remaining (Kinase-Glo Max); read-out: cGAS IC50
pIC50: −log10 of the molar value.
Hi there, I'd appreciate the recorded pIC50 for every entry that follows.

Look over these answered cases.
COc1ccc(Br)c2oc(-c3c(C)[nH]c4c(-c5ccccc5)c(C(F)(F)F)nn4c3=O)nc12 [Compound C1081] = > 4.70
COc1cncc2oc(-c3c(C)[nH]c4c(-c5ccccc5)c(C(F)(F)F)nn4c3=O)nc12 [Compound C1096] = > 4.70
Cc1[nH]c2c(-c3ccccc3)c(C(F)(F)F)nn2c(=O)c1-c1nnc(N2CCCCC2CCN)o1 (stereo not shown) [Compound D1069] = 3.60 to 4.70
CCc1cccc2oc(-c3c(C)[nH]c4c(-c5ccccc5)c(C#N)nn4c3=O)nc12 [Compound C1188] = > 4.70
CO[C@@H]1CCCCC1c1nnc(-c2c(C)[nH]c3c(-c4ccccc4)c(C(F)(F)F)nn3c2=O)o1 (stereo partly shown) [D1046 Iso-2] = > 4.70
COc1nc(NC(C)=O)nc2oc(-c3c(C)[nH]c4c(-c5ccccc5)c(C(F)(F)F)nn4c3=O)nc12 [Compound C1150] = 3.60 to 4.70

Okay, now this molecule:
// query Please give measured pIC50 of the following entry: COc1cccc2oc(-c3c(C)[nH]c4c(-c5ccc(F)cc5)c(C(F)(F)F)nn4c3=O)nc12 [Compound C1107]
// result < 3.60

====

molecular target: Human cGAS amino acids 155-522 (Homo sapiens (Human), UniProt Q8N884); assay: cGAS biochemical activity assay (ATP remaining, Kinase-Glo Max luminescence); details: human cGAS 155-522, ATP remaining (Kinase-Glo Max); read-out: cGAS IC50
pIC50: −log10 of the molar value.
Provide the reported pIC50 of each item.

A selection of reference data follows.
COc1cccc2oc(-c3c(COCc4ccccc4)[nH]c4c(-c5ccccc5)c(C(F)(F)F)nn4c3=O)nc12 = > 4.70
COc1cccc2oc(-c3c(C4CCC(C(=O)O)CC4)[nH]c4c(-c5ccccc5)c(C(F)(F)F)nn4c3=O)nc12 (single isomer, unassigned) [Compound C1238] = 3.60 to 4.70
Cc1[nH]c2c(-c3ccccc3)c(C(F)(F)F)nn2c(=O)c1C(=O)N[C@H]1CCN(C(=O)OC(C)(C)C)C1 = < 3.60
COc1cccc2oc(-c3c[nH]c4c(-c5ccccc5)c(C(F)(F)F)nn4c3=O)nc12 = < 3.60

Batch request: pIC50 for each of the following molecules.
1. Cc1[nH]c2c(-c3ccccc3)c(C(F)(F)F)nn2c(=O)c1-c1nc2c(F)cccc2o1
2. COc1cccc2oc(-c3c(CSC)[nH]c4c(-c5ccccc5)c(C(F)(F)F)nn4c3=O)nc12
3. COc1cccc2oc(-c3c(C)[nH]c4c(-c5cccc(C)c5)c(C(F)(F)F)nn4c3=O)nc12

// result
["> 4.70", "> 4.70", "> 4.70"]

Please report pIC50 for every entry that follows.
1. Cc1[nH]c2c(-c3ccccc3)c(C(F)(F)F)nn2c(=O)c1C(=O)Nc1[nH]nc(C(F)(F)F)c1C1CCCC1
2. COc1ccccc1-c1c(C(F)(F)F)nn2c(=O)c(-c3nc4c(OC)cccc4o3)c(C)[nH]c12

// result
3.60 to 4.70
< 3.60

Go through the list and state pIC50 for each entry.
1. Cc1[nH]c2c(-c3ccccc3)c(C(F)(F)F)nn2c(=O)c1Cc1nnc(C2CCCCC2)o1
2. Cc1[nH]c2c(-c3ccccc3)c(C(F)(F)F)nn2c(=O)c1-c1nnc([C@H]2CCCOC2)o1
3. Cc1[nH]c2c(-c3ccccc3)c(C(F)(F)F)nn2c(=O)c1C(=O)Nc1ccccc1
4. COc1cccc2oc(-c3c(COCC(N)=O)[nH]c4c(-c5ccccc5)c(C(F)(F)F)nn4c3=O)nc12
5. COc1cccc2oc(-c3c(C)[nH]c4c(-c5ccccc5)c(=O)[nH]n4c3=O)nc12

// result
["3.60 to 4.70", "> 4.70", "> 4.70", "3.60 to 4.70", "3.60 to 4.70"]
